Test system: A2780
Assay: In vitro cell proliferation assay (CellTiter-Glo)
Format: cell-based
Settings: Homo sapiens, A2780 cells, 72 h treatment, read-out: Cell Line IC50 A2780
pIC50: −log10 of the molar value.
measurement label: pIC50

CO[C@H]1OCCN2[C@@H]1O[C@@H]1[C@H](C)OC(O[C@H]3C[C@](O)(C(C)=O)Cc4c(O)c5c(c(O)c43)C(=O)c3c(NC(=O)[C@H](C)N)cccc3C5=O)C[C@@H]12 (stereo partly drawn)
8.92
CO[C@H]1OCCN2[C@@H]1O[C@@H]1[C@H](C)O[C@@H](O[C@H]3C[C@](O)(C(C)=O)Cc4c(O)c5c(c(O)c43)C(=O)c3c(F)cccc3C5=O)C[C@@H]12
10.49
CO[C@H]1OCCN2[C@@H]1O[C@@H]1[C@H](C)O[C@@H](O[C@H]3C[C@](O)(C(C)=O)Cc4c(O)c5c(c(O)c43)C(=O)c3c(N)cccc3C5=O)C[C@@H]12
10.36

###

// reported pIC50 per item
Test system: MCF7
Assay: In vitro cell proliferation assay (CellTiter-Glo)
Format: cell-based
Conditions: Homo sapiens, MCF7 cells, 72 h treatment, read-out: Cell Line IC50 MCF7
pIC50: −log10 of the molar value.
measurement label: pIC50

CO[C@H]1OCCN2[C@@H]1O[C@@H]1[C@H](C)OC(O[C@H]3C[C@](O)(C(C)=O)Cc4c(O)c5c(c(O)c43)C(=O)c3c(NC(=O)[C@H](C)N)cccc3C5=O)C[C@@H]12 (stereo partly drawn) [Comp. 26]
8.42
CO[C@H]1OCCN2[C@@H]1O[C@@H]1[C@H](C)O[C@@H](O[C@H]3C[C@](O)(C(C)=O)Cc4c(O)c5c(c(O)c43)C(=O)c3c(N)cccc3C5=O)C[C@@H]12 [Comp. 22]
9.18
CO[C@H]1OCCN2[C@@H]1O[C@@H]1[C@H](C)O[C@@H](O[C@H]3C[C@](O)(C(C)=O)Cc4c(O)c5c(c(O)c43)C(=O)c3c(F)cccc3C5=O)C[C@@H]12 [Comp. 21]
8.45
